# GI50 per entry
tested on: U-251; experiment: NCI tumour cell line growth inhibition, 48 h
Calls of active or inactive are those of the source. Rule as the data show it: active = GI50 up to about 1.1 µM and inactive = higher.
Quantity: GI50

1) COC(=O)/C=C1/OC(c2ccc(OC)cc2)=C(Cl)C1=O : 9.1 µM (inactive)
2) O=C(O)/C(=C\c1ccc(O)cc1)c1cccc2ccccc12 : > 100 µM (inactive)
3) CN(C)/N=N/c1ccc2[nH]c(=O)[nH]c2c1 : > 100 µM (inactive)

###

tested on: BT-549; assay: NCI tumour cell line growth inhibition, 48 h
Calls of active or inactive are those of the source. Rule as the data show it: active = GI50 up to about 1.1 µM and inactive = higher.
Quantity: GI50

1. Cc1cc(C)c(S(=O)(=O)N(CCCN)OCCCON(CCCN)S(=O)(=O)c2c(C)cc(C)cc2C)c(C)c1 : 3.1 µM (inactive)
2. O=C1CSC(c2ccccc2)N1c1ccc(-n2c(-c3ccccc3)nc3ccccc3c2=O)cc1 (stereo unspecified) : > 80.7 µM (inactive)
3. CCN1CCN(c2nc3ccccc3c3c2CCOc2ccccc2-3)CC1 : > 100 µM (inactive)
4. COc1ccccc1NC(=O)CC(=O)NN : > 100 µM (inactive)
5. CC(C)c1cccc(C(=O)NCCN(C)C)c1[N+](=O)[O-] : 19.5 µM (inactive)
6. Nc1c2ccccc2nc2ccc3c(=O)cc(-c4ccccc4)oc3c12 : 2.8 µM (inactive)

###

test system: SNB-19; assay: NCI tumour cell line growth inhibition, 48 h
Calls of active or inactive are those of the source. Rule as the data show it: active = GI50 up to about 1.1 µM and inactive = higher.
In this section, each of the compounds is paired with its reported GI50.
Quantity: GI50

1) C[C@]12CCC(=O)C=C1CC[C@@H]1[C@@H]2[C@@H](O)C[C@@]2(C)[C@H]1CC[C@]2(O)C(=O)COC(=O)COCC(=O)O : > 100 µM (inactive)
2) CCOC(=O)NC1CN2CCC1CC2 (stereo not drawn) : > 100 µM (inactive)
3) CC(C)(C)OC(=O)n1cc(C2CN(O)C(=O)C23CCC(=O)N3Cc2ccccc2)c2ccccc21 (stereo not drawn) : 68.7 µM (inactive)

###

tested on: CCRF-CEM; assay: NCI tumour cell line growth inhibition, 48 h
Active and inactive are the calls of the source. Rule as the data show it: active = GI50 up to about 1.1 µM and inactive = higher.
Outcome codes: active, inactive

1. CC(C)=CCC[C@](C)(O)[C@H]1CC[C@]2(C)[C@@H]1[C@H](O)C[C@@H]1[C@@]3(C)CC[C@H](O[C@@H]4O[C@H](CO)[C@@H](O)[C@H](O)[C@H]4O)C(C)(C)[C@@H]3CC[C@]12C [GINSENOSIDE RH2] : inactive
2. Cc1nc(Nc2ccccc2Cl)sc1C(=O)CC(=O)C(N)=O : inactive
3. COC(=O)/C=C1/OC(c2ccc(OC)cc2)=C(Cl)C1=O : inactive
4. OCCO[P+]1(OCCO)n2c3ccc2C(c2ccccc2)=C2C=CC(=N2)C(c2ccccc2)=c2ccc(n21)=C(c1ccccc1)C1=NC(=C3c2ccccc2)C=C1 : active
5. O=c1cc(-c2ccccc2)oc2ccc(-c3ccc4oc(-c5ccccc5)cc(=O)c4c3)cc12 : inactive
6. O=C1CSC(c2ccccc2)N1c1ccc(-n2c(-c3ccccc3)nc3ccccc3c2=O)cc1 (stereo not given) : inactive
7. Cn1c(N)c(-c2c3ccccc3nc3ccccc23)c(=O)n(C)c1=O : inactive
8. NC(=O)c1cccc(C2OC(COP(=O)(O)O)C(O)C2O)c1 (stereo not given) : inactive
9. COC(=O)c1cc(=O)n(-c2ccc3nn(C)nc3c2)cc1C(=O)OC : inactive
10. CC(O)C1CC1(CO)CNc1cc(Cl)nc(N)n1 (stereo not given) : inactive

###

system: OVCAR-4; assay: NCI tumour cell line growth inhibition, 48 h
Calls of active or inactive are those of the source. Cut-off read from the data, not from the text of the source: active = GI50 up to about 1.1 µM and inactive = higher.
Possible outcomes: true (1) for active, false (0) for inactive

1. O=C(C/C(CCC(=O)N(Cc1ccccc1)Cc1ccccc1)=N/Nc1ccc([N+](=O)[O-])cc1[N+](=O)[O-])c1ccccc1 : false (0)
2. CCC1=C(CC2NCCc3cc(OC)c(OC)cc32)CC2c3ccccc3CCN2C1 (configuration not stated) : false (0)
3. CCOC(=O)CC1NC(=O)CS1 (configuration not stated) : false (0)
4. OCC1CCCCN1Cc1nc2cc(Cl)ccc2[nH]1 (configuration not stated) : false (0)
5. O=C(NNC(=S)Nc1ccccc1)c1ccccc1Nc1ccccc1C(=O)NNC(=S)Nc1ccccc1 : false (0)
6. COC1=CC(=O)[C@]2(C)[C@H](C1=O)C(C)[C@H]2c1ccccc1 (some centres not stated) : false (0)
7. CCCCCC(=O)N[C@@H](c1ccco1)[C@@H](O)C(=O)O[C@H]1C[C@@]2(O)[C@@H](OC(=O)c3ccccc3)[C@@H]3[C@]4(OC(C)=O)CO[C@@H]4C[C@H](O)[C@@]3(C)C(=O)[C@H](OC(C)=O)C(=C1C)C2(C)C : false (0)
8. CCOC(=O)CC1C(C(=O)OCC)=Cn2c([nH]c3cccc4cccc2c43)=C1C(=O)OCC (configuration not stated) : false (0)
9. N#C/C(N)=C(C#N)/N=C/Nc1ccccc1N : false (0)
10. C[C@]12CC[C@H](O)CC1=CC[C@@H]1[C@@H]2CC[C@]2(C)C(=N/N)/C(=N\O)C[C@@H]12 : false (0)
11. CC(C)(CN1CCCCC1)C(=O)/C=C/c1ccccc1 : false (0)
12. CN(C)CCNc1ccc2nnn3c4ccc(O)cc4c(=O)c1c23 : false (0)
13. CCOC(=O)CCN1C(=O)c2ccc(NC(=O)C(=O)O)cc2S1(=O)=O : false (0)
14. COc1ccc(-n2c(N)c(C#N)c(C#N)c2-c2cccc([N+](=O)[O-])c2)cc1 : false (0)
15. CC[C@@]1(O)C(=O)OCc2c1cc1n(c2=O)Cc2c-1nc1ccc(N)cc1c2CC[Si](C)(C)C : true (1)
16. O=C1CSC(c2ccccc2)N1c1ccc(-n2c(-c3ccccc3)nc3ccccc3c2=O)cc1 (configuration not stated) : false (0)
17. O=C1C=Cc2c(I)sc(I)c21 : false (0)
18. Cc1nn2c(N)cc(=O)nc2nc1/C=C/c1ccc(N(C)C)cc1 : false (0)
19. CN[C@H]1CC[C@]23C[C@]24CC[C@]2(C)[C@@H]([C@H](C)N(C)C)CC[C@@]2(C)[C@@H]4CC[C@H]3C1(C)C : false (0)
20. CC(C)(C)c1cc(C=C(C#N)C#N)cc(C(C)(C)C)c1O [TYRPHOSTIN A9] : true (1)
21. CCCCCCCCCCNC1CC(OC2CC(O)(C(O)CO)Cc3c(O)c4c(c(O)c32)C(=O)c2c(OC)cccc2C4=O)OC(C)C1O (configuration not stated) : false (0)
22. O=C1CCc2cc([N+](=O)[O-])ccc2O1 : false (0)
23. COC(=O)C(C(=O)C(=O)Nc1c(Cl)cc([N+](=O)[O-])cc1Cl)c1csc(-n2nc(C3=CCCCC3)cc2-c2ccccc2)n1 (configuration not stated) : false (0)
24. CCOC(=O)c1c(N2CCCC2)ncn(C)c1=S : false (0)
25. Cn1c(=O)nc2n(-c3ccc(O)cc3)c3ccccc3nc-2c1=O : false (0)
26. C#CCN(C)C(=O)N(CC#C)N=O : false (0)
27. COc1ccc(C(=O)/C=C/c2cc(O)c(O)c(F)c2F)c(OC)c1 : false (0)
28. NC(=S)N/N=C1\CCCCc2ccccc21 : false (0)
29. O=c1c(Br)c(-c2ccccc2)[s+]([O-])c2ccccc12 (configuration not stated) : false (0)
30. COc1ccc(-c2cc(-c3ccco3)c(C#N)c(=O)[nH]2)cc1 : false (0)
31. Cc1nnc2n1N=C(c1ccc(-c3ccc([N+](=O)[O-])cc3)o1)CS2 : false (0)
32. COc1ccc(C(=O)O[C@H]2CC[C@@]3(C)[C@@H]4CC[C@H]5[C@]6(O)C[C@H](O)[C@@]7(O)[C@@H](CN8C[C@@H](C)CC[C@H]8[C@@]7(C)O)[C@]6(O)C[C@@]53OC24O)cc1OC [VERATRIDINE] : false (0)

###

system: SN12C; test: NCI tumour cell line growth inhibition, 48 h
Calls of active or inactive are those of the source. Rule as the data show it: active = GI50 up to about 1.1 µM and inactive = higher.
Quantity: GI50

1) CCC1(CC)N=C(C(F)(F)F)c2cc(C(=O)C(F)(F)F)c3ccccc3c2N1 : 3.41 µM (inactive)
2) COC(=O)c1ccc2[nH]c3c(c2c1)CC(=O)Nc1ccccc1-3 : > 100 µM (inactive)
3) O=C(CCBr)N1CCN(C(=O)CCBr)CC1 : 42.6 µM (inactive)
4) CC(C)NC(NC(C)C)=C(S(=O)(=O)C(F)(F)C(F)(F)C(F)(F)C(F)(F)F)S(=O)(=O)C(F)(F)C(F)(F)C(F)(F)C(F)(F)F : > 100 µM (inactive)

###

tested on: UO-31; assay: NCI tumour cell line growth inhibition, 48 h
The source made the active and inactive calls. Cut-off read from the data, not from the text of the source: active = GI50 up to about 1.1 µM and inactive = higher.
Classes used: 1 (yes) for active, 0 (no) for inactive

1. O=c1oc2cc(/N=C/c3ccccc3Cl)ccc2c2ccccc12 : 0 (no)
2. Oc1ccc2ccccc2c1C(c1ccc(Cl)cc1)c1c(O)ccc2ccccc12 : 0 (no)
3. Cc1cn(C2CC(N=[N+]=[N-])C(CO)O2)c(=O)n(CCCCBr)c1=O (stereo not given) : 0 (no)
4. O=S(=O)(O)c1cccc2ccc(O)c(/N=N\c3ccc(S(=O)(=O)c4ccc(/N=N/c5c(O)ccc6cccc(S(=O)(=O)O)c56)cc4)cc3)c12 : 0 (no)
5. NC(=O)CNC(=O)[C@@H]1CC(OCCC(=O)O)CN1C(=O)C1CCCN1C(=O)OCc1ccccc1 (stereo not given in full) : 0 (no)
6. COc1ccc(CC(CO)NC(=O)OCc2ccccc2)cc1Oc1ccc(CC(CO)NC(=O)OCc2ccccc2)cc1 (stereo not given) : 0 (no)
7. O=C(c1ccc2c3c(ccc(C(=O)C(F)(F)F)c13)CC2)C(F)(F)F : 0 (no)
8. Cc1c2ccncc2c(C)c2c1[nH]c1ccc(O)c(OCC(F)(F)F)c12 : 0 (no)
9. CC1CCC(C(C)C)C(O[C@@H]2OC(=O)C[C@@H]2Sc2ccccc2)C1 (stereo not given in full) : 0 (no)
10. O=c1sc2c(s1)SSSSS2 : 0 (no)
11. COC(=O)c1ccc2cc(O)ccc2c1 : 0 (no)
12. COC(=O)c1cc(=O)n(-c2ccc3nn(C)nc3c2)cc1C(=O)OC : 0 (no)
13. COc1cc2c(c(OC)c1OC)-c1ccc(SC)c(=O)cc1[C@@H](OC(=O)c1ccncc1)CC2 : 1 (yes)
14. CC(C)OC(=O)/C=C/C(=O)O/C=C/[N+](=O)[O-] : 0 (no)
15. COC(=O)[C@@H]1CO[C@H](C(C)(C)C)N1C(=O)N1C=CC(=O)C[C@H]1C : 0 (no)
16. O=C(O)c1ccccc1-c1ccccc1C(=O)Nc1ccc2c(c1)nc(O)c1ccccc12 : 0 (no)
17. CC1=NN(c2cccc(Cl)c2)C2(C1=C/C=C/c1ccccc1)C(Cl)C(=O)N2c1nc2ccccc2s1 (stereo not given) : 0 (no)
18. COC(=O)CSSCc1ccc([N+](=O)[O-])cc1 : 0 (no)
19. C/C=N\n1c(C)c(C#N)c(C#N)c1N : 0 (no)
20. COC(=O)C(C(=O)C(=O)Nc1c(Cl)cc([N+](=O)[O-])cc1Cl)c1csc(-n2nc(C3=CCCCC3)cc2-c2ccccc2)n1 (stereo not given) : 0 (no)
21. CCOc1ccccc1/C=C(/C#N)C(N)=O : 0 (no)
22. CC1=CC(C)(C)N=C2SC(c3ccc(Cl)cc3)=NN12 : 0 (no)
23. CC/C(=C\c1ccc(OC)cc1)c1ccc(OC)cc1 : 0 (no)
24. CCCCCCCCCCNC1CC(OC2CC(O)(C(O)CO)Cc3c(O)c4c(c(O)c32)C(=O)c2c(OC)cccc2C4=O)OC(C)C1O (stereo not given) : 0 (no)
25. CN(C)CCN(C)C(=O)c1cccc2cccc(C(=O)O)c12 : 0 (no)
